# targetSystem: Tyrosine-protein kinase Fer (Homo sapiens, UniProt P16591); note: in the data inactive means no Kd found up to 30 µM
# Sequence (P16591 whole entry): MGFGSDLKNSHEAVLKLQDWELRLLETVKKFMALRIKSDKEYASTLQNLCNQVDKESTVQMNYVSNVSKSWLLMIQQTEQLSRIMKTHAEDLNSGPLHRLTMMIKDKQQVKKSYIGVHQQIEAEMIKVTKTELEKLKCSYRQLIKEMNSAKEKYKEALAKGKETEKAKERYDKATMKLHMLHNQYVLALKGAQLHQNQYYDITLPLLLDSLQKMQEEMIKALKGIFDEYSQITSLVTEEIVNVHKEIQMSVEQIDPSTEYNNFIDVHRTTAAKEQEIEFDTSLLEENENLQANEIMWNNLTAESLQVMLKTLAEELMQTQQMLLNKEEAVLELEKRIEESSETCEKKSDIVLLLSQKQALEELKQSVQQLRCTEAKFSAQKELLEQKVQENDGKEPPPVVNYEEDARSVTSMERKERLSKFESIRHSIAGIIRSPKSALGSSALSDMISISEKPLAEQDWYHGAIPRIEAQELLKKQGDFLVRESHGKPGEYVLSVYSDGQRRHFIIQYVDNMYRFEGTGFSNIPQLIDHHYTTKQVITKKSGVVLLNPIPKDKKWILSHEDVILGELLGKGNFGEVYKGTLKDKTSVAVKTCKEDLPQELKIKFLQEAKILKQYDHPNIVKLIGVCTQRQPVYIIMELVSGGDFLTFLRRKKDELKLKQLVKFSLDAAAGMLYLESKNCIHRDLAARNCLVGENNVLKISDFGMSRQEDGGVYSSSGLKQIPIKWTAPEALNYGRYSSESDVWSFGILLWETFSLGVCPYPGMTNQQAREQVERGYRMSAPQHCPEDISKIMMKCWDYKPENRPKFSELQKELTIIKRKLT
Active and inactive are the calls of the source.
Labels: label 1 = active, label 0 = inactive

compound	assignedLabel
O=C(Nc1ccc(OC(F)(F)F)cc1)c1sccc1NCc1ccnc2ccccc12	label 0
Cc1c(NC(=O)OC[C@@H]2COCCN2)cn2ncnc(Nc3ccc4c(cnn4Cc4cccc(F)c4)c3)c12	label 0
COc1ccc(-c2ccc3ncc4c(c3c2)n(-c2ccc(N3CCNCC3)c(C(F)(F)F)c2)c(=O)n4C)cn1 [BGT-226 FREE BASE]	label 0
Cc1cc(C(=O)Nc2cc(Oc3ccc4nc(NC(=O)C5CC5)cn4n3)ccc2C)n(C)n1	label 0
COc1cccc2cc(-c3nc([C@H]4CC[C@H](C(=O)O)CC4)n4ncnc(N)c34)[nH]c12	label 0
O=C(O)c1ccc2c(c1)nc(Nc1cccc(Cl)c1)c1ccncc12	label 0
Cn1c(=O)n(-c2ccc(C(C)(C)C#N)cc2)c2c3cc(-c4cnc5ccccc5c4)ccc3ncc21	label 0
CCN1CCN(Cc2ccc(Nc3ncc(F)c(-c4cc(F)c5nc(C)n(C(C)C)c5c4)n3)nc2)CC1	label 0
C=CCN(/C=C1/C(=O)O[C@H](COC)[C@@]2(C)C1=C(O)C(=O)C1=C2[C@H](OC(C)=O)C[C@]2(C)C(=O)CC[C@@H]12)CC=C	label 0
COc1cc2nccc(Oc3ccc(NC(=O)C4(C(=O)Nc5ccc(F)cc5)CC4)cc3)c2cc1OC [CABOZANTINIB]	label 0
C=CCn1c(=O)c2cnc(Nc3ccc(N4CCN(C)CC4)cc3)nc2n1-c1cccc(C(C)(C)O)n1	label 0
Cc1ccc(C(=O)Nc2ccc(Oc3cc4cnn(C)c4cc3-c3cn[nH]c3)c(F)c2)c(=O)n1-c1ccc(F)cc1	label 0
COCCN1CCN(Cc2ccc(-c3n[nH]c4c3C(=O)c3c(NC(=O)NN5CCOCC5)cccc3-4)cc2)CC1	label 0
COc1cc(F)c(F)c(Nc2ccc(I)cc2F)c1NS(=O)(=O)C1(C[C@H](O)CO)CC1	label 0
CC1(COc2ccc3c(c2)ncn3-c2ccc3cccc(N4CCC(N)CC4)c3n2)COC1	label 0
NC(=O)c1ccc(N(C(N)=O)c2c(F)cccc2F)nc1-c1ccc(F)cc1F	label 0
CNC(=O)c1cc(COc2nnc(Nc3ccc(Cl)cc3)c3ccoc23)ccn1	label 0
O=S(=O)(c1cccc2c(O)nccc12)N1CCCNCC1 [HYDROXYFASUDIL]	label 0
O[C@H]1CC[C@H](Nc2ncc3nc(Nc4c(F)cc(F)cc4F)n([C@H]4CCOC4)c3n2)CC1	label 0
COc1cc2ncnc(Nc3ccc(O)cc3)c2cc1OC	label 0
S=C(NCc1ccc2c(c1)OCO2)N1CCN(c2ncnc3c2oc2ccccc23)CC1	label 0
CNC(=O)c1ccc(Nc2ncc(C(F)(F)F)c(NCc3nccnc3N(C)S(C)(=O)=O)n2)cc1	label 1
O=C(NOC[C@H](O)CO)c1ccc(F)c(F)c1Nc1ccc(I)cc1F	label 0
Cn1c(=O)c(F)c(Nc2ccc(I)cc2F)c2c(=O)n(C[C@@H](O)CO)cnc21	label 0
COc1cc2ncnc(Nc3ccc(F)c(Cl)c3)c2cc1NC(=O)/C=C/CN1CCCCC1 [DACOMITINIB ANHYDROUS]	label 0
CN1CCN(c2nc(C3=C(c4c[nH]c5ccccc45)C(=O)NC3=O)c3ccccc3n2)CC1	label 0
CCOc1ccn(-c2ccc(F)cc2)c(=O)c1C(=O)Nc1ccc(Oc2ccnc(N)c2Cl)c(F)c1	label 0
Cn1cc(-c2[nH]c3cc(NC(=O)[C@H](N)C4CCCCC4)cc4c3c2C=NNC4=O)cn1	label 0
C[C@@H]1COC(Nc2ccc3ncnc(Nc4ccc(OCc5nccs5)c(Cl)c4)c3c2)=N1	label 0
Cc1cc(-c2cc(OC(=O)c3ccccc3)ccc2Cl)cc2nnc(Nc3ccc(OCCN4CCCC4)cc3)nc12	label 0
CCN(CCCOc1ccc2c(Nc3cc(CC(=O)Nc4cccc(F)c4)n[nH]3)ncnc2c1)CCOP(=O)(O)O	label 0
c1cc(OCCN2CCCCC2)cc(-c2n[nH]c3ccc(-c4nc[nH]n4)cc23)c1	label 0

---

Sequence of the target: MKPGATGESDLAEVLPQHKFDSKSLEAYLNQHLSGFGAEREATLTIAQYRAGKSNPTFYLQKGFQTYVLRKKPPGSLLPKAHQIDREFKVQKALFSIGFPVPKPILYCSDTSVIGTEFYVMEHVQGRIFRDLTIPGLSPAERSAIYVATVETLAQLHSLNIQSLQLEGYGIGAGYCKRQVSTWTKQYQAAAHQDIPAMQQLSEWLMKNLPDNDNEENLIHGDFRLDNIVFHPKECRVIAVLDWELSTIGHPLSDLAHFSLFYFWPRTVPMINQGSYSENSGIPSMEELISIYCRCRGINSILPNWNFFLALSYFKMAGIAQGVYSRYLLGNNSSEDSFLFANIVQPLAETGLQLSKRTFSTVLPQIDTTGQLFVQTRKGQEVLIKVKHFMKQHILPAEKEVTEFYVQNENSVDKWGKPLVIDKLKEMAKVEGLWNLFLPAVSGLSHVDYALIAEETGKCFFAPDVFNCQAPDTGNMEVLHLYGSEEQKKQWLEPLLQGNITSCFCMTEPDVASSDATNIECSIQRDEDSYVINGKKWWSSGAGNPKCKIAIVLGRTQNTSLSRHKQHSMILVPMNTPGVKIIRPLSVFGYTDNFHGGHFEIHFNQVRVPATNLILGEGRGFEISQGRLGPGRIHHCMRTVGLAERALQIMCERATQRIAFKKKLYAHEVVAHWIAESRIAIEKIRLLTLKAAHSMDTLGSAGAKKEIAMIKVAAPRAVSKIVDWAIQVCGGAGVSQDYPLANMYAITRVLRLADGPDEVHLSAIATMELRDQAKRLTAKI
Activity calls are given as the source filed them.
measure: Kd

smilesRepresentation	reportedValue
COc1ccc2c(OCc3nnc4ccc(-c5ccccc5)nn34)ccnc2c1	> 30 µM (inactive)
C=CCN(/C=C1/C(=O)O[C@H](COC)[C@@]2(C)C1=C(O)C(=O)C1=C2[C@H](OC(C)=O)C[C@]2(C)C(=O)CC[C@@H]12)CC=C	> 30 µM (inactive)
O=C(NOC[C@H](O)CO)c1ccc(F)c(F)c1Nc1ccc(I)cc1F	> 30 µM (inactive)
O=C(NC[C@H](O)CO)c1ccncc1Nc1ccc(I)cc1F	> 30 µM (inactive)
CCc1nc(C(N)=O)c(Nc2ccc(N3CCC(N4CCN(C)CC4)CC3)c(OC)c2)nc1NC1CCOCC1	> 30 µM (inactive)
CN(c1ncccc1CNc1nc(Nc2ccc3c(c2)CC(=O)N3)ncc1C(F)(F)F)S(C)(=O)=O	> 30 µM (inactive)
O=C(Nc1ccc(OC(F)(F)F)cc1)c1sccc1NCc1ccnc2ccccc12	> 30 µM (inactive)
CCOc1ccn(-c2ccc(F)cc2)c(=O)c1C(=O)Nc1ccc(Oc2ccnc(N)c2Cl)c(F)c1	> 30 µM (inactive)

---

# targetSystem: Mitogen-activated protein kinase 15 (Homo sapiens); note: in the data inactive means no Kd found up to 30 µM
# Sequence (Q8TD08 whole entry): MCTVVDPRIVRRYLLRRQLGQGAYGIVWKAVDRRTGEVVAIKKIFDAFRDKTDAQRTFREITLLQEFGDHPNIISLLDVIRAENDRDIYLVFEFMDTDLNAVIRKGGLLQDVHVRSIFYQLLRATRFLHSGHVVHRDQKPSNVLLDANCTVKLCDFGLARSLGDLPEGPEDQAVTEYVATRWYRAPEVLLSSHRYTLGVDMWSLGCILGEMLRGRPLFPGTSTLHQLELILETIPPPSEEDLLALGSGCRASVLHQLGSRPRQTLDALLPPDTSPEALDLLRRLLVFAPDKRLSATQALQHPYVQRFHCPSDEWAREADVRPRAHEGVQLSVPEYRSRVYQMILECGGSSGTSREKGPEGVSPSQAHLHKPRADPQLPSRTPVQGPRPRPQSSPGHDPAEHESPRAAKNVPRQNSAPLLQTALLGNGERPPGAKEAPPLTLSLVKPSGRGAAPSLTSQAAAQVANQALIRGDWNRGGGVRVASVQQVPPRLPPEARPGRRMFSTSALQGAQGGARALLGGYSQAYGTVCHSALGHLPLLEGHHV
The source made the active and inactive calls.
Labels: active, inactive

compound	assignedLabel
Cc1c(NC(=O)OC[C@@H]2COCCN2)cn2ncnc(Nc3ccc4c(cnn4Cc4cccc(F)c4)c3)c12	inactive
COc1cc2ncnc3c2cc1OCCCCCN(C)Cc1ccc(Br)cc1N3	inactive
C=CC(=O)Nc1cc(Nc2nccc(-c3cn(C)c4ccccc34)n2)c(OC)cc1N(C)CCN(C)C	inactive
CC(C)(O)CC(=O)NCCn1ccc2ncnc(Nc3ccc(Oc4cccc(C(F)(F)F)c4)c(Cl)c3)c21	inactive
COc1ccc2c(OCc3nnc4ccc(-c5ccccc5)nn34)ccnc2c1	inactive
CCN(CCCOc1ccc2c(Nc3cc(CC(=O)Nc4cccc(F)c4)n[nH]3)ncnc2c1)CCOP(=O)(O)O	inactive
O=S(=O)(c1cccc2c(O)nccc12)N1CCCNCC1 [HYDROXYFASUDIL]	inactive
O=C(NC[C@H](O)CO)c1ccncc1Nc1ccc(I)cc1F	inactive
CN1CCN(c2nc(C3=C(c4c[nH]c5ccccc45)C(=O)NC3=O)c3ccccc3n2)CC1	inactive
Cc1cc(Nc2nc(N[C@@H](C)c3ncc(F)cn3)ncc2Cl)n[nH]1	inactive
C[C@]1(O)C[C@@H](c2nc(-c3ccc4ccc(-c5ccccc5)nc4c3)c3c(N)nccn32)C1	inactive
COc1ccc(-c2ccc3ncc4c(c3c2)n(-c2ccc(N3CCNCC3)c(C(F)(F)F)c2)c(=O)n4C)cn1 [BGT-226 FREE BASE]	inactive
C#Cc1cccc(Nc2ncnc3cc4c(cc23)OCCOCCOCCO4)c1	inactive
CC(C)CC(=O)Nc1[nH]nc2c1CN(C(=O)C1CCN(C)CC1)C2(C)C	active
S=C(NCc1ccc2c(c1)OCO2)N1CCN(c2ncnc3c2oc2ccccc23)CC1	inactive
C=CC(=O)Nc1cccc(Nc2nc(Nc3ccc(N4CCN(C(C)=O)CC4)cc3OC)ncc2C(F)(F)F)c1	inactive
O=S(=O)(c1cccc2cnccc12)N1CCCNCC1	inactive
CCOc1ccn(-c2ccc(F)cc2)c(=O)c1C(=O)Nc1ccc(Oc2ccnc(N)c2Cl)c(F)c1	inactive
COc1cc(F)c(F)c(Nc2ccc(I)cc2F)c1NS(=O)(=O)C1(C[C@H](O)CO)CC1	inactive
NC(=O)c1ccc(N(C(N)=O)c2c(F)cccc2F)nc1-c1ccc(F)cc1F	inactive
O[C@H]1CC[C@H](Nc2ncc3nc(Nc4c(F)cc(F)cc4F)n([C@H]4CCOC4)c3n2)CC1	inactive
O=C(NOC[C@H](O)CO)c1ccc(F)c(F)c1Nc1ccc(I)cc1F	inactive
COc1cc2ncnc(Nc3ccc(F)c(Cl)c3)c2cc1NC(=O)/C=C/CN1CCCCC1 [DACOMITINIB ANHYDROUS]	inactive
c1cc(OCCN2CCCCC2)cc(-c2n[nH]c3ccc(-c4nc[nH]n4)cc23)c1	inactive
NC[C@@](O)(c1ccc(Cl)cc1)c1ccc(-c2cn[nH]c2)cc1	inactive
C=CCN(/C=C1/C(=O)O[C@H](COC)[C@@]2(C)C1=C(O)C(=O)C1=C2[C@H](OC(C)=O)C[C@]2(C)C(=O)CC[C@@H]12)CC=C	inactive
Cn1c(=O)n(-c2ccc(C(C)(C)C#N)cc2)c2c3cc(-c4cnc5ccccc5c4)ccc3ncc21	inactive
FC(F)(F)c1ccc(CNc2ccc(Cc3c[nH]c4ncc(Cl)cc34)cn2)cn1	inactive
CC[C@@](C)(Nc1ccnc(-c2c[nH]c3ncccc23)n1)C(=O)NCC(F)(F)F	inactive
COc1cc2nccc(Oc3ccc(NC(=O)C4(C(=O)Nc5ccc(F)cc5)CC4)cc3)c2cc1OC [CABOZANTINIB]	inactive
